Target: BRD4 BD1 (Homo sapiens, UniProt O60885)
Assay: AlphaScreen binding assay, BRD4 Bromodomain 1

COMPOUND	IC50
CC(=O)N1c2ccc(-c3ccc(F)c(C(=O)NC(C)C)c3)cc2N(C(=O)c2ccco2)C[C@@H]1C [Example I-829]	1000 to 10000 nM
CC(=O)N1c2ccc(-c3cc(Cl)cc(S(C)(=O)=O)c3)cc2N(C(=O)C2CC2)C[C@@H]1C [Example I-1094]	1000 to 10000 nM
CC(=O)N1c2ccc(-c3cnn(CC(=O)N(C)C)c3)cc2N(C(=O)OC(C)C)C[C@@H]1C [Example I-305]	100 to 1000 nM
CC(=O)N1c2ccc(-c3cnn(C4CC4)c3)cc2N(C(=O)Oc2ccc3ncsc3c2)C[C@@H]1C [Example I-527]	100 to 1000 nM
CC(=O)N1c2ccc(-c3ccc(S(C)(=O)=O)cc3)cc2N(C(=O)c2cc3cc(Cl)ccc3[nH]2)CC1C (stereo not drawn) [Example I-785]	1000 to 10000 nM
CC(C)OC(=O)N1C[C@H](C)N(C(=O)C2CC2)c2ccc(-c3cnn(CCC(N)=O)c3)cc21 [Example I-621]	100 to 1000 nM
CC(=O)N1c2ccccc2N(C(=O)c2ccc(-c3ccccc3)cc2)C[C@@H]1C [Example I-703]	> 10000 nM
CC(=O)N1c2ccc(-c3ccc4c(c3)N(C)S(=O)(=O)N4)cc2N(C(=O)C2CC2)C[C@@H]1C [Example I-1175]	100 to 1000 nM
CC(=O)N1c2ccc(-c3cnn(CC(N)=O)c3)cc2N(C(=O)OC(C)C)C[C@@H]1C [Example I-304]	100 to 1000 nM
CC(C)OC(=O)N1C[C@H](C)N(C(=O)C2CC2)c2ccc(-c3cnn(CC(=O)N4CCCCC4)c3)cc21 [Example I-614]	1000 to 10000 nM
CC(=O)N1c2ccc(-c3ccc(S(C)(=O)=O)c(F)c3)cc2N(C(=O)OC2CCCCC2)C[C@@H]1C [Example I-1241]	100 to 1000 nM
CC(=O)N1c2ccc(-c3cnn(C4COC4)c3)cc2N(C(=O)OC2CC(F)(F)C2)C[C@@H]1C [Example I-65]	< 100 nM
CC(=O)N1c2ccc(-c3cnn(C4CC4)c3)cc2N(c2nn(C)c3ccccc23)C[C@@H]1C [Example I-52]	100 to 1000 nM
CCOC(=O)N1C[C@H](C)N(C(C)=O)c2ccc(-c3ccc(S(C)(=O)=O)c(F)c3)cc21 [Example I-1084]	1000 to 10000 nM
CC(=O)N1c2ccc(-c3ccc(C#N)cn3)cc2N(C(=O)c2ccco2)C[C@@H]1C [Example I-392]	1000 to 10000 nM

* * *

// values below are reported pIC50
Target: BRD4 BD2 (Homo sapiens, UniProt O60885)
Experiment: AlphaScreen binding assay, BRD4 Bromodomain 2
pIC50: −log10 of the molar value.

COMPOUND	pIC50
CC(=O)N1c2ccc(-c3ccc(C(=O)N4CCNC(=O)C4)cc3)cc2N(C(=O)OC(C)C)C[C@@H]1C [Example I-547]	6.30 to 7.30
CC(=O)N1c2ccc(-c3cnn(C4CCOCC4)c3)cc2N(C(=O)OC2CCCC2)C[C@@H]1C [Example I-1147]	> 7.30
CC(=O)N1c2ccc(-c3ccc(NC(=O)N4CCOCC4)cc3)cc2N(C(=O)c2ccco2)C[C@@H]1C [Example I-285]	> 7.30
CCOC(=O)N1C[C@H](C)N(C(C)=O)c2ccc(-c3ccc(S(=O)(=O)n4cccn4)cc3)cc21 [Example I-1117]	6.30 to 7.30
CC(=O)N1c2ccc(-c3ccc(S(C)(=O)=O)cc3)cc2N(C(=O)Nc2ccccc2)C[C@@H]1C [Example I-964]	6.30 to 7.30
CC(=O)N1c2cc(Cl)c(-c3ccc(S(C)(=O)=O)cc3)cc2N(C(=O)OC(C)C)C[C@@H]1C [Example I-218]	< 6.30

* * *

Molecular target: BRD4 BD1 (Homo sapiens)
Assay: AlphaScreen binding assay, BRD4 Bromodomain 1
RECORDED METRIC: IC50

MOLECULE	TESTED TARGET	RESULT
CC(=O)N1c2ccc(-c3cccc(S(=O)(=O)NCCO)c3)cc2N(C(=O)OC2CCOCC2)C[C@@H]1C [Example I-1256]	BRD4 BD1 (Homo sapiens)	100 to 1000 nM
CC(=O)N1c2ccccc2N(C(=O)c2cnc(-c3cccnc3)s2)C[C@@H]1C [Example I-726]	BRD4 BD1 (Homo sapiens)	> 10000 nM
CC(=O)N1c2ccc(-c3ccc(=O)n(C)c3)cc2N(C(=O)c2ccco2)C[C@@H]1C [Example I-411]	BRD4 BD1 (Homo sapiens)	1000 to 10000 nM

* * *

Biological target: BRD4 BD1 (Homo sapiens, UniProt O60885)
Experiment: AlphaScreen binding assay, BRD4 Bromodomain 1
Here the recorded IC50 is given for each entry.

MOL	IC50
CC(=O)N1c2ccc(-c3cnn(CC(C)(C)F)c3)cc2N(C(=O)OC(C)C)C[C@@H]1C	100 to 1000 nM
CC(=O)N1c2ccc(-c3cccc(S(N)(=O)=O)c3)cc2N(C(=O)C2CC2)C[C@@H]1C	1000 to 10000 nM
CC(=O)N1c2ccc(-c3cnn(C[C@@H]4CCNC4)c3)cc2N(C(=O)OC(C)C)C[C@@H]1C	100 to 1000 nM

* * *

Measured IC50, listed per entry for reference.
Biological target: BRD4 BD1 (Homo sapiens)
Construct: made in house
Assay: AlphaScreen binding assay, BRD4 Bromodomain 1
Protocol: The binding of Example compounds to BRD4 Bromodomain 1 and BRD4 Bromodomain 2 was assessed using 384-well AlphaScreen assay technology. His-epitope tagged BRD4 BD144-168 and BRD4 BD2333-460 were cloned, expressed, and purified to homogeneity. BRD4 BD1 and BRD4 BD2 binding and inhibition was assessed by monitoring the engagement of biotinylated Histone H4 (1-21) K5/8/12/16 tetra-acetylated peptide with the targets using the AlphaScreen technology (PerkinElmer). […]
RECORDED METRIC: IC50

MOL	TESTED TARGET	RESULT
CC(=O)N1c2ccc(-c3cnn(Cc4cncs4)c3)cc2N(C(=O)OC(C)C)C[C@@H]1C	BRD4 BD1 (Homo sapiens)	0.1 to 1 µM
CC(=O)N1c2ccc(-c3cccc(S(=O)(=O)N(C)C)c3)cc2N(C(=O)OC2CCOCC2)C[C@@H]1C	BRD4 BD1 (Homo sapiens)	0.1 to 1 µM
COc1cccc(OC(=O)N2C[C@H](C)N(C(C)=O)c3ccc(-c4cnn(C5CC5)c4)cc32)c1	BRD4 BD1 (Homo sapiens)	0.1 to 1 µM
CC(=O)N1c2ccc(N(C)Cc3ccccc3)cc2N(C(=O)c2ccco2)C[C@@H]1C	BRD4 BD1 (Homo sapiens)	1 to 10 µM
CC(=O)N1c2ccccc2N(S(=O)(=O)c2ccccc2C#N)C[C@@H]1C	BRD4 BD1 (Homo sapiens)	> 10 µM
CC(=O)N1c2ccc(-c3cnn(C4CC4)c3)cc2N(C(=O)OC2CCC2)C[C@@H]1C	BRD4 BD1 (Homo sapiens)	< 0.1 µM

* * *

Target: BRD4 BD2 (Homo sapiens)
Assay: AlphaScreen binding assay, BRD4 Bromodomain 2
# IC50 per entry

MOL	IC50
CC(=O)N1c2ccc(-c3cnn(C4CC4)c3)cc2N(C(=O)Oc2cccnc2C)C[C@@H]1C	50 to 500 nM
CC(=O)N1c2ccc(-c3cnn(C4CC4)c3)cc2N(C(=O)Oc2ccccc2Cl)C[C@@H]1C	< 50 nM
CC(=O)N1c2ccccc2N(C(=O)c2ccccc2Oc2ccccc2)C[C@@H]1C	> 500 nM
COC(=O)N1c2ccc(-c3cnn(CCN(C)C)c3)cc2N(C(=O)OC(C)C)C[C@@H]1C	> 500 nM
CC(=O)N1c2ccc(-c3cnn(C4CC4)c3)cc2N(C(=O)Oc2ccc(C#N)cc2Cl)C[C@@H]1C	50 to 500 nM
COC(=O)N1CCN(C(=O)c2ccc(-c3ccc4c(c3)N(C(=O)OC(C)C)C[C@H](C)N4C(C)=O)cc2)CC1	50 to 500 nM
CC(=O)N1c2ccc(-c3cccc(S(C)(=O)=O)c3)cc2N(C(=O)OC2CCCCC2)C[C@@H]1C	50 to 500 nM

* * *

The reader will find reported IC50 values listed item by item below.
Target: BRD4 BD2 (Homo sapiens)
Test: AlphaScreen binding assay, BRD4 Bromodomain 2
Protocol: The binding of Example compounds to BRD4 Bromodomain 1 and BRD4 Bromodomain 2 was assessed using 384-well AlphaScreen assay technology. His-epitope tagged BRD4 BD144-168 and BRD4 BD2333-460 were cloned, expressed, and purified to homogeneity. BRD4 BD1 and BRD4 BD2 binding and inhibition was assessed by monitoring the engagement of biotinylated Histone H4 (1-21) K5/8/12/16 tetra-acetylated peptide with the targets using the AlphaScreen technology (PerkinElmer). […]
RECORDED METRIC: IC50

COMPOUND	TESTED TARGET	RECORDED METRIC	RESULT
COc1cccc(CC(=O)N2C[C@H](C)N(C(C)=O)c3ccccc32)c1 [Example I-699]	BRD4 BD2 (Homo sapiens)	IC50	> 0.5 µM
CC(=O)N1c2ccc(-c3ccc4nn(C)cc4c3)cc2N(C(=O)c2ccco2)C[C@@H]1C [Example I-404]	BRD4 BD2 (Homo sapiens)	IC50	0.05 to 0.5 µM
CC(=O)N1c2ccc(-c3ccc(S(=O)(=O)C(C)C)cc3)cc2N(C(=O)OC(C)C)C[C@@H]1C [Example I-1065]	BRD4 BD2 (Homo sapiens)	IC50	0.05 to 0.5 µM
CC(=O)N1c2ccc(-c3ccc(S(C)(=O)=O)cc3)cc2N(C(=O)c2cc3cnccc3[nH]2)CC1C (stereo not shown) [Example I-778]	BRD4 BD2 (Homo sapiens)	IC50	0.05 to 0.5 µM
C[C@H]1CN(C(=O)c2ccco2)c2cc(-c3ccc(S(C)(=O)=O)cc3)ccc2N1C(=O)N(C)C [Example I-369]	BRD4 BD2 (Homo sapiens)	IC50	> 0.5 µM
CC(=O)N1c2ccccc2N(C(=O)Cc2ccc(-c3ccccc3)cc2)C[C@@H]1C [Example I-707]	BRD4 BD2 (Homo sapiens)	IC50	> 0.5 µM
CC(=O)N1c2ccc(-c3cnn(C4CCC4)c3)cc2N(C(=O)OC(C)C)C[C@@H]1C [Example I-24]	BRD4 BD2 (Homo sapiens)	IC50	0.05 to 0.5 µM
